Items are presented alongside their recorded relative viability.
# System: KHOS-240S
# testName: relative viability vs DMSO control (72 h) (fraction); higher = more viable cells
# conditionSet: 0.3704 µM
Hey, just send me the number, nothing else.

Known relative viability results, listed for orientation:
Cc1nc(Nc2ncc(C(=O)Nc3c(C)cccc3Cl)s2)cc(N2CCN(CCO)CC2)n1 : 0.337
C[C@H]1Oc2cc(cnc2N)-c2c(nn(C)c2C#N)CN(C)C(=O)c2ccc(F)cc21 : 1.01
Cc1cn(-c2cc(NC(=O)c3ccc(C)c(Nc4nccc(-c5cnccn5)n4)c3)cc(C(F)(F)F)c2)cn1 : 1.05
NC(=O)c1cnc2[nH]ccc2c1N[C@@H]1[C@@H]2CC3C[C@H]1C[C@@](O)(C3)C2 : 1.04
Cc1ccc(C(=O)OCc2ccc([C@@H](CN)C(=O)Nc3ccc4cnccc4c3)cc2)c(C)c1 : 0.768

*Q* State its relative viability for this compound: C[C@@H](Oc1cc(-c2cnn(C3CCNCC3)c2)cnc1N)c1c(Cl)ccc(F)c1Cl
*A* 0.992

*Q* Identify the reported relative viability for the following entry. Cc1cn(-c2cc(NC(=O)c3ccc(C)c(Nc4nccc(-c5cccnc5)n4)c3)cc(C(F)(F)F)c2)cn1
*A* 0.998

*Q* Report relative viability for NC(=O)c1cccc2cn(-c3ccc([C@@H]4CCCNC4)cc3)nc12
*A* 1.06
